target: TGF-β1 (UniProt P01137 279-390); assay: cell-based or functional assay
Sequence (P01137 279-390 limits assumed): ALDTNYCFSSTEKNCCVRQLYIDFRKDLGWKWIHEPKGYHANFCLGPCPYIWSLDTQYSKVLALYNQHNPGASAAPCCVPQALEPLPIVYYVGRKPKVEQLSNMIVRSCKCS
PROPERTY MEASURED: IC50-inhibition of TGF-β1 induced reporter gene activity (HEK-Blue TGF-β cells, SEAP) (nM)
Value expressed in nM; do not type the unit.

Recorded IC50-inhibition of TGF-β1 induced reporter gene activity (HEK-Blue TGF-β cells, SEAP), per entry:
- Anti-PD-1 (VL5-VH6).IgG4 (antibody, V domains shown) VH: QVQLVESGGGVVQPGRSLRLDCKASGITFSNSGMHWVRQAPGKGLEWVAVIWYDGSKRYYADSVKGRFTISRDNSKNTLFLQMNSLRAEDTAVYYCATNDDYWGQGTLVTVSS VL: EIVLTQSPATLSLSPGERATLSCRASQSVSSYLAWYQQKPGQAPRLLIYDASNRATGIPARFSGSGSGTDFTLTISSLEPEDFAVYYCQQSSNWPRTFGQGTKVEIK: 0.009
- Anti-PD-1 (nVL1-nVH8).IgG4-TGFbRII (other) heavy (part 1 of 2): EVQLVQSGGGVVQPGRSLRLSCAASGFTFSSYGMHWVRQAPGKGLEWVAVIWYDGSNKYYADSVKGRFTISRDNSKNTLYLQMNSLRAEDTAVYYCATNNDYWGQGTLVTVSS heavy (part 2 of 2): GGGGSGGGGSIPPHVQKSVNNDMIVTDNNGAVKFPQLCKFCDVRFSTCDNQKSCMSNCSITSICEKPQEVCVAVWRKNDENITLETVCHDPKLPYHDFILEDAASPKCIMKEKKKPGETFFMCSCSSDECNDNIIFSEEYNTSNPD VL: EIVMTQSPATLSLSPGERATLSCRASQSVSSYLAWYQQKPGQAPRLLIYDASNRATGIPARFSGSGSGTDFTLTISSLEPEDFAVYYCQQYNNWPRTFGQGTKVEIK: 0.0545

Now examine the next entry.
### Prompt Please give the measured IC50-inhibition of TGF-β1 induced reporter gene activity (HEK-Blue TGF-β cells, SEAP) for this binder: Anti-PD-1 (nVL1-nVH7).IgG4-TGFbRII (other) heavy (part 1 of 2): QVQLVESGGGVVQPGRSLRLDCKASGFTFSNSGMHWVRQAPGKGLEWVAVIWYDGSKRYYADSVKGRFTISRDNSKNTLFLQMNSLRAEDTAVYYCATNNDYWGQGTLVTVSS heavy (part 2 of 2): GGGGSGGGGSIPPHVQKSVNNDMIVTDNNGAVKFPQLCKFCDVRFSTCDNQKSCMSNCSITSICEKPQEVCVAVWRKNDENITLETVCHDPKLPYHDFILEDAASPKCIMKEKKKPGETFFMCSCSSDECNDNIIFSEEYNTSNPD VL: EIVMTQSPATLSLSPGERATLSCRASQSVSSYLAWYQQKPGQAPRLLIYDASNRATGIPARFSGSGSGTDFTLTISSLEPEDFAVYYCQQYNNWPRTFGQGTKVEIK
### Response 0.0151
